What Relative activity (%), Substrate a) was measured for each of the following?
testedSystem: APAT (acetyl-coenzyme A pregnenolone acetyltransferase) (Saccharomyces cerevisiae, UniProt P53296)
Construct: the semi-purified APAT transfers the acetate on 3β-ol, delta^4 or delta^5-steroids; endogenous in cells; host or cells: S. cerevisiae strain TGY73.4; endogenous enzyme purified in house from cell lysate (ZnCl2 precipitation, DEAE-Sephacel, Phenyl-Sepharose, Q-Sepharose, cholate-Sepharose)
Sequence (P53296 whole entry): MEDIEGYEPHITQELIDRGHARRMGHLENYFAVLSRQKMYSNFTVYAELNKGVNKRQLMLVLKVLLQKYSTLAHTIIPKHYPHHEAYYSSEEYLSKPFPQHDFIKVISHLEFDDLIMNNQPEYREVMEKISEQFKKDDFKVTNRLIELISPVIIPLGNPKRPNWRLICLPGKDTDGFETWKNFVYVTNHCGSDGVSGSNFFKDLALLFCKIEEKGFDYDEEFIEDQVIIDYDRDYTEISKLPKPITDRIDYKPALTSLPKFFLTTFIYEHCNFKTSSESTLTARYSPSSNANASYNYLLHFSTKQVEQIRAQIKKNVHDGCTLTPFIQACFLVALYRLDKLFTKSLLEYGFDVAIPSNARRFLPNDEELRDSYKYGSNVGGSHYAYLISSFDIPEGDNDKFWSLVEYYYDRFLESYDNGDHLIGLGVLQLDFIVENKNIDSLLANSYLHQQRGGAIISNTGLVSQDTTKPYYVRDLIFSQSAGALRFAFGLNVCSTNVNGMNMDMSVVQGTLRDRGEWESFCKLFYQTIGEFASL
assayMethodText: Test of APAT enzyme activity (semi-purified APAT; substrate specificity and inhibition)
Type: biochemical, S. cerevisiae
condition: 30 μM of each steroid tested and 100 μM of [3H]acetyl-CoA; semi-purified APAT
Give bare numbers, in %.

| molecule | valueObserved |
| --- | --- |
| C[C@]12CC[C@H](O)CC1=CC[C@@H]1[C@@H]2CC[C@]2(C)C(=O)CC[C@@H]12 [DHEA, dehydroepiandrosterone] | 104 |
| CC(C)CCC[C@@H](C)[C@H]1CC[C@H]2[C@@H]3CC=C4C[C@@H](O)CC[C@]4(C)[C@H]3CC[C@]12C | 0.6 |

Look up Relative activity (%), Substrate a): `C[C@]12CC[C@@H]3c4ccc(O)cc4CC[C@H]3[C@@H]1CCC2=O` 2.5
